Overview of reported melting point across a group of compounds:

* N#CC(C#N)=C1C=C(c2ccsc2)S(=O)(=O)C(c2ccsc2)=C1 | 275 to 285 °C
* COC(=O)Nc1cc(C)c(Br)cc1I | 140 to 141 °C

Given the compound "CS(=O)(=O)c1cc(C(=O)NCCN2CCOCC2)c(NCc2ccco2)cc1Cl" , what is its reported melting point?
127 to 130 °C

Given the compound "CC(C)(C)c1cc(Cl)c(Cl)cc1[N+](=O)[O-]" , what is its reported melting point?
80 °C

Given the compound "CC(C)[C@H](S)C(=O)NC(C)(C)C(=O)N[C@@H](COCc1ccccc1)C(=O)O" , what is its reported melting point?
57 to 70 °C

Given the compound "CC(C)(C)OOC(C)(CCC(=O)NNC(=O)c1ccccc1)OOC(C)(C)C" , what is its reported melting point?
147 to 149 °C

Given the compound "Oc1cccc2ccc(N3CCN(c4nc5ccc(C(F)(F)F)cc5[nH]4)CC3)nc12" , what is its reported melting point?
191 to 193 °C

Given the compound "CCOC(=O)c1cc(Oc2ccc3c(C(=O)Nc4cccc(C(F)(F)F)c4)cccc3c2)ncn1" , what is its reported melting point?
194 °C

Given the compound "Cc1nc(C(C)(C)C)ccc1/C=C/C(=O)Nc1ccc2cc[nH]c2c1" , what is its reported melting point?
182 °C

Given the compound COc1cc(OC2CCN(Cc3cccnc3)CC2)ccc1CC(=O)N1CCN(c2ccccc2C)CC1C(N)=O (configuration not stated) , what is its reported melting point?
78 to 81 °C

Given the compound "COc1cc(O)c(C(=O)C=Cc2cccnc2)c(OC)c1" , what is its reported melting point?
158 °C

Given the compound CC(=O)O[C@H]1C[C@@H](n2ccc(=O)cc2)[C@H](O)[C@@H]1O (racemic) , what is its reported melting point?
191 to 196 °C
